- RUN_DESCRIPTION: Passive permeability of the compound in dog RRCK cells
- Type: ADME, cell-based, Canis lupus familiaris, MDCKII-LE
- EXPERIMENTAL_SETUP: MDCK, read-out: permeability
Catalogue of compounds with associated Papp
Please give a number only; it is taken to be in ×10⁻⁶ cm/s.

TEST_SMILES	SCALE_UNIT	Papp
CCn1cc2c(Oc3ccc(S(C)(=O)=O)cc3)cc(C(=O)Nc3cnc(C)cn3)cc2n1	×10⁻⁶ cm/s	13.4
CCn1cc2c(Oc3cnc(C(=O)N4CCC4)c(F)c3)cc(C(=O)Nc3cnc(C)cn3)cc2n1	×10⁻⁶ cm/s	16.3
CCCn1cc2c(Oc3ccc(S(C)(=O)=O)cc3)cc(C(=O)Nc3cnc(C)cn3)cc2n1	×10⁻⁶ cm/s	14.2
Cc1cnc(NC(=O)c2cc(Oc3cnc(C(=O)N(C)C)nc3)c3cn(C)nc3c2)cn1	×10⁻⁶ cm/s	11.5
Cc1cnc(NC(=O)c2cc(Oc3ccc(S(C)(=O)=O)cc3)c3cn(C4CC4)nc3c2)cn1	×10⁻⁶ cm/s	15.5
Cc1cnc(NC(=O)c2cc(Oc3cnc(C(=O)N(C)C)c(F)c3)c3cn(C)nc3c2)cn1	×10⁻⁶ cm/s	20.2

Specify Papp for Cc1cnc(NC(=O)c2cc(Oc3ccc(S(C)(=O)=O)cc3)c3cn(C)nc3c2)cn1 and stop.
20.4

// Input: Cc1cnc(NC(=O)c2cc(Oc3ccc(S(=O)(=O)N(C)C)cc3)c3cn(C)nc3c2)cn1 . Output its Papp only.
13.6

Tell me Papp reported for Cc1cnc(NC(=O)c2cc(Oc3ccc(S(C)(=O)=O)cc3)c3cn(CCO)nc3c2)cn1
6.3

###

- RUN_DESCRIPTION: Fraction unbound in human plasma
- Assay type: ADME, cell-free
ASSAY_ENDPOINT: fraction unbound

Tell us which fraction unbound value is on record for CCn1cc2c(Oc3cnc(C(=O)N4CCC4)c(F)c3)cc(C(=O)Nc3cnc(C)cn3)cc2n1
0.2

###

- RUN_DESCRIPTION: Cmax in Wistar-Han rat at 1 mg/kg, iv
- Type: ADME, organism-based
- Parameters: dose 1 mg/kg, route intravenous
- EXPERIMENTAL_SETUP: in vivo
ASSAY_ENDPOINT: Cmax
Give the figure together with its unit, number first.

Return value of Cmax for input CCn1cc2c(Oc3cnc(C(=O)N4CCC4)c(F)c3)cc(C(=O)Nc3cnc(C)cn3)cc2n1 , no commentary.
1820 ng/mL

###

- TARGET_DESC: Voltage-gated inwardly rectifying potassium channel KCNH2 (Homo sapiens)
- Sequence (Q12809 whole entry): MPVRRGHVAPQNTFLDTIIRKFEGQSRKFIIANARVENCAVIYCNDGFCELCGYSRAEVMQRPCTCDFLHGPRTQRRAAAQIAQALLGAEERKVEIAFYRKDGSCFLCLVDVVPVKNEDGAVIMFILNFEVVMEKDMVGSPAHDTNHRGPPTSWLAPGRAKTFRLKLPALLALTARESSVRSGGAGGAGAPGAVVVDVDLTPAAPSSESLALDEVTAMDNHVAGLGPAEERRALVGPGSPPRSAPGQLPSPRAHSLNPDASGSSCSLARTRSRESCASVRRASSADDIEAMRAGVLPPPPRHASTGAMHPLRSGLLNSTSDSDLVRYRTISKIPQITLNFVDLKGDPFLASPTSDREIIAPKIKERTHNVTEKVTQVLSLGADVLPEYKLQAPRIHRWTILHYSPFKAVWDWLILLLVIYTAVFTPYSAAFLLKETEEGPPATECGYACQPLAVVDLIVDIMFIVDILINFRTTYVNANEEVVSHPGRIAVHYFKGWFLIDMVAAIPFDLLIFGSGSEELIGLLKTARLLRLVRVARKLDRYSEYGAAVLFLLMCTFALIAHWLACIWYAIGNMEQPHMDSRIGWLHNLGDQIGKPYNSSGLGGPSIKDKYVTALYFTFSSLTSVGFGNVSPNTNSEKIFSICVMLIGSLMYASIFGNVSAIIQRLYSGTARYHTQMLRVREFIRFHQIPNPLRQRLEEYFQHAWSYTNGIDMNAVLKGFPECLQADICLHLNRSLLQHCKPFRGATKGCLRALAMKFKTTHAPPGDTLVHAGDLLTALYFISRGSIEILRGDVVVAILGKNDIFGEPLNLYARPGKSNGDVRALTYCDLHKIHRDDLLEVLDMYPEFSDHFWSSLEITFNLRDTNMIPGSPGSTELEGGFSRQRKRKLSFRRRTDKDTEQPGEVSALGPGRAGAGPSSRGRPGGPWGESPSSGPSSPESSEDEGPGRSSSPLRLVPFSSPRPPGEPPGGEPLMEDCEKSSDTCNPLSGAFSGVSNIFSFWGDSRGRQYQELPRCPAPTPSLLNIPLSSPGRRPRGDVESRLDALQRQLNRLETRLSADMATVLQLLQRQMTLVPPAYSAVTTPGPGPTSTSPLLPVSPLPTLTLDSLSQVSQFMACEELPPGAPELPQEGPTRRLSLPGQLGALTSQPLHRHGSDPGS
- RUN_DESCRIPTION: Inhibition of human ERG by patch clamp assay
ASSAY_ENDPOINT: IC50

For the compound CCn1cc2c(Oc3cnc(C(=O)N4CCC4)c(F)c3)cc(C(=O)Nc3cnc(C)cn3)cc2n1 , report IC50.
> 300 µM

###

- RUN_DESCRIPTION: Clearance in Wistar-Han rat at 1 mg/kg, iv
- Assay type: ADME, organism-based
- Parameters: dose 1 mg/kg, route intravenous
- EXPERIMENTAL_SETUP: in vivo
ASSAY_ENDPOINT: clearance (mL/min/kg)
Dear colleague, please return just the value in mL/min/kg, with no unit written.

Read off the recorded clearance for CCn1cc2c(Oc3cnc(C(=O)N4CCC4)c(F)c3)cc(C(=O)Nc3cnc(C)cn3)cc2n1
10.5

Data origin: ChEMBL document CHEMBL2203262
